# subject-of-test: Glycogen phosphorylase, muscle form (Oryctolagus cuniculus)
# experiment-notes: Inhibition of rabbit muscle glycogen phosphorylase at 222 uM
property-measured: inhibition

O=C(Cn1cccc(NCc2ccccc2)c1=O)N[C@H](CO)c1ccccc1: 40%
O=C(Cn1cccc(NC(=O)c2ccccc2)c1=O)NCc1ccccc1: < 20%

Attention now shifts to the item below.
Q: Quickly give me recorded inhibition for "CC(=O)Nc1cccn(CC(=O)NC2CCCCC2)c1=O"
A: < 20%
